Numbers sourced from the supplement of paper PMC7017272.

Tested on: UT-SCC-42B
Test: maximal % inhibition of viability relative to DMSO; higher = stronger effect
Details: culture condition: embedded in Matrigel; treatment time: 3 days
For each of the compounds below, state its maximal % inhibition of viability.
Express it in %; write the number only.

(Q) // fetch maximal % inhibition of viability given entry O=C(NC[C@H](O)CO)c1ccncc1Nc1ccc(I)cc1F [Pimasertib]
(A) 70.2

(Q) // fetch maximal % inhibition of viability given entry CO[C@H]1C[C@@H]2CC[C@@H](C)[C@@](O)(O2)C(=O)C(=O)N2CCCC[C@H]2C(=O)O[C@H]([C@H](C)C[C@@H]2CC[C@@H](OP(C)(C)=O)[C@H](OC)C2)CC(=O)[C@H](C)/C=C(\C)[C@@H](O)[C@@H](OC)C(=O)[C@H](C)C[C@H](C)/C=C/C=C/C=C/1C [Ridaforolimus]
(A) 16.8

(Q) // fetch maximal % inhibition of viability given entry CC(=O)Nc1cccc(-n2c(=O)n(C3CC3)c(=O)c3c(Nc4ccc(I)cc4F)n(C)c(=O)c(C)c32)c1 [Trametinib]
(A) 67.8

(Q) // fetch maximal % inhibition of viability given entry Cn1c(=O)c(F)c(Nc2ccc(I)cc2F)c2c(=O)n(C[C@@H](O)CO)cnc21 [TAK-733]
(A) 71.3

(Q) // fetch maximal % inhibition of viability given entry Cn1cnc2c(F)c(Nc3ccc(Br)cc3F)c(C(=O)NOCCO)cc21 [Binimetinib]
(A) 66.2

(Q) // fetch maximal % inhibition of viability given entry Cn1cnc2c(F)c(Nc3ccc(Br)cc3Cl)c(C(=O)NOCCO)cc21 [Selumetinib]
(A) 67.7

(Q) // fetch maximal % inhibition of viability given entry COc1cc(F)c(F)c(Nc2ccc(I)cc2F)c1NS(=O)(=O)C1(C[C@H](O)CO)CC1 [Refametinib]
(A) 79.1

(Q) // fetch maximal % inhibition of viability given entry CO[C@H]1C[C@@H]2CC[C@@H](C)[C@@](O)(O2)C(=O)C(=O)N2CCCC[C@H]2C(=O)O[C@H]([C@H](C)C[C@@H]2CC[C@@H](O)[C@H](OC)C2)CC(=O)[C@H](C)/C=C(\C)[C@@H](O)[C@@H](OC)C(=O)[C@H](C)C[C@H](C)/C=C/C=C/C=C/1C [Sirolimus]
(A) 85

(Q) // fetch maximal % inhibition of viability given entry COc1ccc(-c2cc3c(C)nc(N)nc3n([C@H]3CC[C@H](OCCO)CC3)c2=O)cn1
(A) 63.8
